Reference source: patent US10385103B2

- Tested on: RAW 264.7 cells
- run.description: Quantitative cell-permeability of FITC-labeled aMTD- or rPeptide-fused CRA recombinant proteins (flow cytometry)
- Format: cell-based
- assay.conditions: cell-permeability of aMTD-fused CRA recombinant protein relative to reference CPP (B: MTM12)
Parameter Relative Ratio (Fold) B: see the listing below.
Report the value in Fold with no unit label.

Recorded Relative Ratio (Fold) B, per entry:
# substance, quantity, unit.annotation, experimental.value
measured = [
    ("826 (LVALAAPIIAVP; Amino acid Sequence of aMTD826) [compound 826]", "Relative Ratio (Fold) B", "Fold", 32.9),
    ("786 (LVAIAPLAVLAP; Amino acid Sequence of aMTD786) [compound 786]", "Relative Ratio (Fold) B", "Fold", 14.2),
    ("746 (VAIIVVAPALAP; Amino acid Sequence of aMTD746) [compound 746]", "Relative Ratio (Fold) B", "Fold", 4.4),
]

Given the substance 686 (AALVAVLPVALP; Amino acid Sequence of aMTD686) [compound 686] , write its reported Relative Ratio (Fold) B.
13.1
